# Target System: Human GPR120 short form (Homo sapiens, UniProt Q5NUL3)
# Construct: expressed in transfected cells
# Experiment Summary: Human GPR120 calcium flux assay, Procedure Calcium B (4200 cells/well)
# Format: cell-based
Endpoint: log10(EC50) (log10 of the value in nM)

{"columns": ["Molecule", "Endpoint", "Measured Result"],
 "data": [
  ["Cc1c(CCC(=O)O)ccc(OCC2=C(c3cccs3)CCC2)c1C", "log10(EC50)", 2.09],
  ["O=C(O)CCc1cc(F)c(OCC2=C(c3cncs3)CCC(F)(F)C2)c(F)c1", "log10(EC50)", 3.11],
  ["Cc1cc(CCC(=O)O)ccc1OCC1=C(c2ccc(Cl)cc2)CC(F)(F)CC1", "log10(EC50)", 2.22],
  ["COC1CCC(c2ccc(C)cc2)=C(COc2ccc(CCC(=O)O)c(C(F)(F)F)c2)C1 (stereo not drawn)", "log10(EC50)", 3.04],
  ["O=C(O)CCc1ccc(OCC2=C(c3ccc(Cl)cc3)CCCC2)c(F)c1F", "log10(EC50)", 1.62],
  ["O=C(O)CCc1ccc(OCC2=C(Cc3ccc(F)cc3)CCC2)cc1Cl", "log10(EC50)", 3.28],
  ["Cc1ccc(C2=C(COc3ccc(CCC(=O)O)c(C)c3C)CCCC2)cc1F", "log10(EC50)", 1.91],
  ["Cc1ccc(C2=C(COc3ccc(CCC(=O)O)c(C)c3C)CC(F)(F)CC2)s1", "log10(EC50)", 1.95],
  ["O=C(O)CCc1ccc(OCC2=C(Cc3ccccc3)CCCC2)cc1", "log10(EC50)", 3.32],
  ["O=C(O)CCc1ccc(OCC2=C(c3ccc(Cl)cc3)CCCC2)cc1F", "log10(EC50)", 2.52],
  ["CC1CCC(c2ccc(Cl)cc2)=C1COc1ccc(CCC(=O)O)c(Cl)c1 (stereo not drawn)", "log10(EC50)", 2.53],
  ["Cc1ccc(C2=C(COc3ccc(CCC(=O)O)c(F)c3F)CCC2)cc1[N+](=O)[O-]", "log10(EC50)", 2.57],
  ["Cc1cc(CCC(=O)O)ccc1OCC1=C(c2ccc(F)cc2F)CC(F)(F)C1", "log10(EC50)", 1.51],
  ["Cc1ccccc1C1=C(COc2ccc(CCC(=O)O)c(C(F)(F)F)c2)CCC1", "log10(EC50)", 3.42]
]}

----------
# Target System: Human GPR120 short form (Homo sapiens, UniProt Q5NUL3)
# Construct: expressed in transfected cells
# Sequence (Q5NUL3 1-361): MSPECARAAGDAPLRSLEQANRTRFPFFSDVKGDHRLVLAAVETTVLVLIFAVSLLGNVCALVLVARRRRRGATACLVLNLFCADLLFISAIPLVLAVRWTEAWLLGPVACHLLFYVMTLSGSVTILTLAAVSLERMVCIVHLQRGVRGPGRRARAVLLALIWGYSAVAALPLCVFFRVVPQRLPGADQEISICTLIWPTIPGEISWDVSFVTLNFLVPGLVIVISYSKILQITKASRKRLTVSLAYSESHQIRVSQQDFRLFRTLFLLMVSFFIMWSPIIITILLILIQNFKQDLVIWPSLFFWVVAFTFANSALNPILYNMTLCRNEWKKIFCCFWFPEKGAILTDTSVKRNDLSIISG
# Experiment Summary: Human GPR120 calcium flux assay, Procedure Calcium B (4200 cells/well)
# Format: cell-based
pEC50: −log10 of the molar value.

{"columns": ["Compound", "Target System", "Relation", "pEC50"],
 "data": [
  ["Cc1cc(OCC2=C(Cc3ccc(F)cc3)CCC2)c(F)cc1CCC(=O)O", "Human GPR120 short form (Homo sapiens, UniProt Q5NUL3)", "=", 5.75],
  ["O=C(O)CCc1ccc(OCC2=C(C3CCC3)CCC2)cc1C(F)(F)F", "Human GPR120 short form (Homo sapiens, UniProt Q5NUL3)", "=", 6.17],
  ["Cc1cc(CCC(=O)O)cc(F)c1OCC1=C(c2ccc(F)cc2)CCC1", "Human GPR120 short form (Homo sapiens, UniProt Q5NUL3)", "=", 6.45],
  ["CSCCCCc1cc(CCC(=O)O)ccc1OCC1=C(c2ccc(Cl)cc2)CCC1", "Human GPR120 short form (Homo sapiens, UniProt Q5NUL3)", "=", 5.89],
  ["O=C(O)CCc1ccc(OCC2=C(c3ccc(Cl)cc3)CCC2)c(F)c1F", "Human GPR120 short form (Homo sapiens, UniProt Q5NUL3)", "=", 7.64],
  ["O=C(O)CCc1ccc(OCC2=C(c3ccc(F)cc3)CC(F)(F)C2)c(F)c1", "Human GPR120 short form (Homo sapiens, UniProt Q5NUL3)", "=", 7.11],
  ["O=C(O)CCc1ccc(OCC2=C(C3CC4CCC3C4)CCCC2)cc1C(F)(F)F (stereo not drawn)", "Human GPR120 short form (Homo sapiens, UniProt Q5NUL3)", "<", 5.30],
  ["Cc1cc(OCC2=C(c3ccc(F)cc3)CCC(F)(F)C2)ccc1CCC(=O)O", "Human GPR120 short form (Homo sapiens, UniProt Q5NUL3)", "=", 6.59],
  ["Cc1ccc(C2=C(COc3ccc(CCC(=O)O)c(F)c3F)CCCC2)cc1F", "Human GPR120 short form (Homo sapiens, UniProt Q5NUL3)", "=", 7.43],
  ["Cc1ccc(C2=C(COc3ccc(CCC(=O)O)c(C)c3C)CCC2)cc1", "Human GPR120 short form (Homo sapiens, UniProt Q5NUL3)", "=", 7.62],
  ["O=C(O)CCc1ccc(OCC2=C(c3ccc(F)cc3)CCC2)cc1", "Human GPR120 short form (Homo sapiens, UniProt Q5NUL3)", "=", 6.68],
  ["CC1CCC(c2ccccc2)=C1COc1ccc(CCC(=O)O)c(Cl)c1 (stereo not drawn)", "Human GPR120 short form (Homo sapiens, UniProt Q5NUL3)", "=", 5.76],
  ["O=C(O)CCc1ccc(OCC2=C(C3CCC3)CCCC2)cc1Cl", "Human GPR120 short form (Homo sapiens, UniProt Q5NUL3)", "=", 5.92],
  ["Cc1cc(OCC2=C(c3ccc(Cl)cc3F)CCC2)c(F)cc1CCC(=O)O", "Human GPR120 short form (Homo sapiens, UniProt Q5NUL3)", "=", 6.50],
  ["Cc1c(CCC(=O)O)ccc(OCC2=C(c3ccc(F)cc3)CCC2)c1C", "Human GPR120 short form (Homo sapiens, UniProt Q5NUL3)", "=", 7.36],
  ["Cc1ccc(C2=C(COc3ccc(CCC(=O)O)c(Cl)c3)CCC2)cc1F", "Human GPR120 short form (Homo sapiens, UniProt Q5NUL3)", "=", 6.80],
  ["Cc1cc(CCC(=O)O)cc(Cl)c1OCC1=C(c2ccc(F)cc2)CCC1", "Human GPR120 short form (Homo sapiens, UniProt Q5NUL3)", "=", 5.90],
  ["O=C(O)CCc1ccc(OCC2=C(c3ccc(F)cc3)CC(F)(F)C2)cc1C(F)(F)F", "Human GPR120 short form (Homo sapiens, UniProt Q5NUL3)", "=", 6.39]
]}

----------
# Target System: Human GPR120 short form (Homo sapiens, UniProt Q5NUL3)
# Construct: expressed in transfected cells
# Sequence (Q5NUL3 1-361): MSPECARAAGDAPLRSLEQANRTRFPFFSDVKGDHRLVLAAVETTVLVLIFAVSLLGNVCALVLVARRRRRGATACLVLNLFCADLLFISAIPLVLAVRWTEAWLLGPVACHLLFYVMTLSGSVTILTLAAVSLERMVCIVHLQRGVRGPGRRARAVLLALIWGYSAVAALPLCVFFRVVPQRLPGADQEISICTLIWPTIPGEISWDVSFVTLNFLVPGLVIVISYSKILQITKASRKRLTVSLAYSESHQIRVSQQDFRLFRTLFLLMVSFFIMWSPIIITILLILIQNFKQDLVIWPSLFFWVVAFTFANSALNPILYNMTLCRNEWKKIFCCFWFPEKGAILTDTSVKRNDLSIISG
# Experiment Summary: Human GPR120 calcium flux assay, Procedure Calcium B (4200 cells/well)
# Assay type: cell-based

{"columns": ["Compound", "EC50"],
 "data": [
  ["O=C(O)CCc1ccc(OCC2=C(C3CCCC3)CCC(F)(F)CC2)cc1F", "302 nM"],
  ["O=C(O)CCc1ccc(OCC2=C(Cc3ccccc3)CCC2)cc1", "1140 nM"],
  ["Cc1cc(OCC2=C(C3=CCCCC3)CCC2)c(F)cc1CCC(=O)O", "> 5000 nM"],
  ["Cc1ncc(C2=C(COc3ccc(CCC(=O)O)c(C)c3C)CC(F)(F)CC2)s1", "525 nM"],
  ["COC1CC(COc2c(F)cc(CCC(=O)O)cc2F)=C(c2ccc(Cl)cc2)C1 (stereo not drawn)", "137 nM"],
  ["COc1ccc(C2=C(COc3ccc(CCC(=O)O)c(C(F)(F)F)c3)CCC2)c(C)c1", "> 5000 nM"],
  ["Cc1ccc(C2=C(COc3cc(C)c(CCC(=O)O)cc3F)CCC2)c(C)c1", "2240 nM"],
  ["Cc1cc(CCC(=O)O)ccc1OCC1=C(Cc2ccccc2)CCC1", "185 nM"],
  ["Cc1c(CCC(=O)O)ccc(OCC2=C(c3ccc(OC(F)(F)F)cc3)CCCC2)c1C", "1450 nM"]
]}
